Each entry below carries its recorded Binding affinity (RU).
target: acetylcholine receptor; assay: SPR, peptide at 10 uM over immobilized acetylcholine receptor
State just the number; it will be interpreted in RU.

KLQRKK [6mer-2-116]	126

Please look at the following binder next.
[in] Item KSRSKK [6mer-2-89] has what recorded Binding affinity (RU)?
[out] 141
